Measured pIC50 by item
# assay target: Cyclin E/CDK2 (Homo sapiens, UniProt P24941)
# test summary: CDK2 assay (Cyclin E/CDK2 in vitro kinase SPA assay, biotinylated Histone H1 peptide)
# condition label: read-out: CDK2 IC 50
# pIC50 = -log10(concentration in molar units)

Example cases with answers are listed next.
mol | pIC50
Cc1cc(Nc2nc(C3=CCCNC3)cn3c(-c4cnn(C)c4)cnc23)sc1S(=O)(=O)N1CCOCC1 | 5.16
Cn1cc(-c2cnc3c(Nc4ccns4)nc(CCN)cn23)cn1 | 6.26

Looking up CCN(CC)S(=O)(=O)c1sc(Nc2nc(C3=CCCNC3)cn3c(-c4cnn(C)c4)cnc23)cc1C , I found its pIC50 recorded as 5.08

----------
# assay target: His-CHK1 (Homo sapiens)
# Sequence (O14757 1-265 limits assumed): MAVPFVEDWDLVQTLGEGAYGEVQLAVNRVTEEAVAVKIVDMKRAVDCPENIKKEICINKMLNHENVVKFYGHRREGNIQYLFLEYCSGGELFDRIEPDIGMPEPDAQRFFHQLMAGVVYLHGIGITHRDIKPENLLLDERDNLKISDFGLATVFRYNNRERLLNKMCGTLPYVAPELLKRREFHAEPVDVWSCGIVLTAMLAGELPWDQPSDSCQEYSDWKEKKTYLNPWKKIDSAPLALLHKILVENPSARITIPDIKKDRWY
# test summary: CHK1 SPA assay (recombinant His-CHK1, biotinylated CDC25C peptide, 33P-ATP)
readout kind: pIC50
By convention, pIC50 is the negative base-10 log of a molar concentration.

Cn1cc(-c2cnc3c(Nc4ccns4)nc(CCN)cn23)cn1 has a reported pIC50 of 7.77

Value source: patent US20070117804A1
